Recorded MIC, one value per entry.
Test system: Escherichia coli (E. coli) strain CFT073 ATCC 700928
Type: cell-based
RECORDED CONDITIONS: ATCC 700928, 22 h
*1 amine or outer side, *2 acyl side, *3 side chain or, on linkers, in order; H or OH if unused. Where a SMILES comes first, the peptide text is derived from it. [ ]: non-standard residue; d: D form. X23 = CCCCCCCCCC[C@@H](OCCN[*:1])[C@@H](C)C(=O)[*:2]; aIle = CC[C@@H](C)[C@H](N)C(=O)O; NMeL = CN[C@@H](CC(C)C)C(=O)O; Dap = NC[C@H](N)C(=O)O
Kindly provide the numeric value in µM only, without the unit symbol.

Recorded MIC, per entry:
INSERT INTO results (compound, result_unit, recorded_result) VALUES
  ('CCCCCCCCCC[C@H]1OC(=O)CNC(=O)[C@H]([C@H](C)O)NC(=O)[C@H](CO)NC(=O)[C@H]([C@@H](C)CC)NC(=O)[C@H](CC(C)C)N(C)C(=O)[C@@H]1C', 'µM', 13),
  ('CCCCCC[C@H]1OC(=O)CNC(=O)[C@H](COCCCN)NC(=O)[C@H](CN)NC(=O)[C@H](C2CCCCC2)NC(=O)[C@H](CC(C)C)N(C)C(=O)[C@@H]1C', 'µM', 8.7);

Field: next compound
## Input // MIC lookup, key: CCCCCCCCCC[C@H]1OCCNC(=O)[C@H](CO)NC(=O)[C@H](CN)NC(=O)[C@H]([C@H](C)CC)NC(=O)[C@H](CC(C)C)N(C)C(=O)[C@@H]1C [Example 99] (cyclo([Dap]S[X23][NMeL][aIle]))
## Output 17
